src = PubChem BioAssay AID1956

experiment: enhancers of HSV replication in host cells, fold increase, host cell viability (AID 1956); details: HSV replication augmentation in cells
Hit rate of the full screen: of about 220,000 compounds, about 10 (0.005%) were called active. Not all results are given here.
ENDPOINT NAME: outcome

molecule=CCc1nnc(SCc2cccc(F)c2)nc1CC result=inactive
molecule=CCOC(=O)C1=NN(c2ccc(Cl)cc2)/C(=C/C2=NCCc3cc(OC)c(OC)cc32)S1 result=inactive
molecule="CNC(C)C#Cc1ccc2sc3cc(OC)c(OC)cc3c(=O)c2c1 (stereo not drawn)" result=inactive

###

test: enhancers of HSV replication in host cells, fold increase, host cell viability (AID 1956); details: HSV replication augmentation in cells; measured here: primary screen fold increase 10 uM, at 10 µM, stronger effect = higher value
About 10 (0.005%) of roughly 220,000 compounds were called active. These entries were drawn from the full list.
Labels assigned by fold increase range: lo (below 0.9), med (0.9 to below 1), hi (1 or more)

Illustrative cases are given below, each with its answer.
cpd_smiles=Cc1cccc(NC(=O)c2ccc([N+](=O)[O-])o2)c1 class_label=lo
cpd_smiles=C[C@H]1CC[C@]2(O[C@@H](CCO)C[C@@H](O)[C@@H]2O)O1 class_label=lo
cpd_smiles=CCN(CC)CCNCC(=O)Nc1ccc(Oc2ccccc2)cc1 class_label=med
cpd_smiles=C=CCSC(CC)(CC)C(N)=O class_label=hi
cpd_smiles=CCCCN1C(N)=NC[C@@H]1CC1CCCCC1 class_label=lo

Please report the category associated with Cn1ccnc1-c1nnn(-c2ccc(F)cc2)n1 , nothing else. hi

Now consider O=c1c2c3c(sc2n(CCN2CCCC2)c(=O)n1Cc1ccccc1)CCCCC3 and answer again. lo

Now consider CCCCCCCCCCCCN1[C@@H](CC(C)=O)c2cc(F)cc(F)c2S1(=O)=O and answer again. med

Now consider COC(C[C@@H]1O[C@@H]1C(=O)[C@H](C)OCc1ccccc1)OC and answer again. lo

Now consider CC1(C)C=Cc2c(ccc3c2OC[C@@H](c2ccc(O)cc2O)C3)O1 and answer again. lo

Now consider O=C1N[C@H](Cc2ccccc2)C(=O)N[C@H]1Cc1cn(S(=O)(=O)c2ccccc2)c2ccccc12 and answer again. lo

###

assay: enhancers of HSV replication in host cells, fold increase, host cell viability (AID 1956); conditions: HSV replication augmentation in cells; measured here: primary screen fold increase 10 uM, at 10 µM, stronger effect = higher value
Screen size: about 220,000 compounds; about 10 (0.005%) were called active. These entries were drawn from the full list.
ENDPOINT NAME: fold increase
// print number alone

molecule="CC1(C)CC[C@]2(C(=O)O)CC[C@]3(C)C(=CCC4[C@@]5(C)CC[C@H](O)C(C)(C)C5[C@H](O)C[C@]43C)[C@@H]2C1 (stereo partly specified)" quantitative_result=0.82
molecule=Cc1ccc(-c2csc(NCCc3nc4cc(Cl)c(Cl)cc4n3CCOCCO)n2)cc1 quantitative_result=0.88
molecule=COc1ccc(CCn2c(NN=C3CCCC3)nc3c2c(=O)[nH]c(=O)n3C)cc1 quantitative_result=0.93
molecule=CN(C)N=Nc1ccc2nc[nH]c2c1 quantitative_result=1.29
molecule=Cc1c(NC(=O)C(=O)N/N=C/c2cccs2)c(=O)n(-c2ccccc2)n1C quantitative_result=0.92
molecule=C/C(=N\Nc1cccc(C(=O)O)c1)c1ccc2c(c1)Nc1ccccc1S2 quantitative_result=1.22
molecule=O=C(O)C1CCN(c2ccc([N+](=O)[O-])cc2[N+](=O)[O-])CC1 quantitative_result=0.9
molecule=Cc1ccc(S(=O)(=O)N(C)C)cc1NC(=O)c1n[nH]c(=O)c2ccccc12 quantitative_result=0.73

Next molecule, please.
For the molecule OCC[C@H]1C[C@H](O)[C@@H](O)[C@]2(CCCCO2)O1 , what fold increase is on record? 0.79
